- System: Human immunodeficiency virus 1
- Protocol: Antiviral activity against HIV1 3B infected in human MT2 cells after 5 days by chemiluminescence in presence of fetal bovine serum
- Type: functional, organism-based
- Condition Parameters: Human immunodeficiency virus 1, 3B, MT2, 120 h
Attribute Measured: pEC50
Answers are plain numbers, as −log10 of the molar value.

These solved cases illustrate the format of a correct answer.
- Molecule: "CN(c1c2c(c(O)c3ncccc13)C(=O)N(Cc1ccc(F)c(Cl)c1)C2)S(C)(=O)=O"
  pEC50: 8.46
- Molecule: "CNC(=O)c1cc(F)ccc1CN1Cc2c(c(O)c3ncccc3c2N(C)S(C)(=O)=O)C1=O"
  pEC50: 7.49
- Molecule: "CN(c1c2c(c(O)c3ncccc13)C(=O)N(Cc1cc(Cl)c(F)cc1F)C2)S(C)(=O)=O"
  pEC50: 8.22

Count: 5. Required value per item: pEC50.
1. CN(c1c2c(c(O)c3ncccc13)C(=O)N(Cc1cccc(Cl)c1F)C2)S(C)(=O)=O
2. CN(c1c2c(c(O)c3ncccc13)C(=O)N(Cc1ccccc1)C2)S(C)(=O)=O
3. CN(c1c2c(c(O)c3ncccc13)C(=O)N(Cc1ccc(F)c(Cl)c1F)C2)S(C)(=O)=O
4. CC(=O)Nc1cc(F)ccc1CN1Cc2c(c(O)c3ncccc3c2N(C)S(C)(=O)=O)C1=O
5. Cc1nnc(C(=O)NC(C)(C)c2nc(C(=O)NCc3ccc(F)cc3)c(O)c(=O)n2C)o1 [RALTEGRAVIR]

8.22
7.46
8.30
7.28
8.40

Data point: CN(c1c2c(c(O)c3ncccc13)C(=O)N(Cc1ccc(F)cc1)C2)S(C)(=O)=O ; pEC50 = 8.77

* * *

- Protocol: Inhibition of HIV integrase strand transfer activity
- Set-up: species or system Human immunodeficiency virus
Attribute Measured: pIC50
Numbers only, as −log10 of the molar value.

These solved cases illustrate the format of a correct answer.
- Test Smiles: "CN(c1c2c(c(O)c3ncccc13)C(=O)N(Cc1ccc(F)cc1)C2)S(C)(=O)=O"
  pIC50: 7.55
- Test Smiles: "CNC(=O)c1cc(F)ccc1CN1Cc2c(c(O)c3ncccc3c2N(C)S(C)(=O)=O)C1=O"
  pIC50: 7.13

As a next step, examine the molecule that follows.
Data point: CN(c1c2c(c(O)c3ncccc13)C(=O)N(Cc1ccc(F)c(Cl)c1)C2)S(C)(=O)=O ; pIC50 = 7.28
